Below are pIC50 measurements against Macrophage colony-stimulating factor 1 receptor (Homo sapiens, UniProt P07333) drawn from the literature.
pIC50: −log10 of the molar value.

Look over these answered cases.
[
  {
    "Mol Smiles": "CCCCN(C)C(=O)Nc1ccc(F)c(C(=O)c2c[nH]c3ncc(Cl)cc23)c1F",
    "pIC50": "≥ 5.00"
  },
  {
    "Mol Smiles": "c1ccc(Oc2ccccc2Nc2c[nH]c3ncccc23)cc1",
    "pIC50": "≥ 5.00"
  }
]

Need pIC50, item CCOc1ccc(Nc2ccc(Cc3c[nH]c4ncnc(C5CC5)c34)c(F)n2)cn1
> 8.00

Note, next up: CCCS(=O)(=O)Nc1ccc(F)c(C(=O)c2c[nH]c3ncc(-c4cccc(OC)c4)cc23)c1F
≥ 5.00

Note, next up: COc1ccc(Nc2ncc(Cc3c[nH]c4ncc(C)cc34)cn2)cn1
> 8.00

Note, next up: COc1cc(Cc2c[nH]c3ncc(C)cc23)c(F)cc1OCc1nc2cc(Cl)ccc2[nH]1
≥ 5.00

Note, next up: CN1CCN(c2ccc(Nc3ncc4cc(C#N)c(=O)n(C5CCCC5)c4n3)cc2)CC1
8.84

Note, next up: CS(=O)(=O)Nc1cccc(-c2cnc3[nH]cc(C(=O)c4cc(F)cc(C(F)(F)F)c4)c3c2)c1
≥ 5.00
